Origin of measurements: PubChem BioAssay (EPA / NIEHS)

Read-out: Apoptosis regulator Bcl-2 (Homo sapiens) (UniProt P10415)
Sequence (P10415 whole entry, looked up): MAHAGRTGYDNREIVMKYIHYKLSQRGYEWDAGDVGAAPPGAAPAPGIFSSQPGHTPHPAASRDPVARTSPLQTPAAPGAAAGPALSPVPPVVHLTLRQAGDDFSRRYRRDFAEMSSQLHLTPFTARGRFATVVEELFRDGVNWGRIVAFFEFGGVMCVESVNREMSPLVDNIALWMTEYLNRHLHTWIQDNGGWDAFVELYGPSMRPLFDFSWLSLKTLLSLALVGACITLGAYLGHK
Experimental details: LTEA_HepaRG_BCL2: Life Technologies and Expression Analysis (LTEA) Assay for Bcl-2 gene using HepaRG (AID 2283475);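 also: BCL2 transcript by TaqMan qRT-PCR normalised to ACTB GAPDH and POLR2A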
Conditions used: mRNA level, 48 h; actives raise or lower the signal
Calls of active or inactive are those of the source. The calls were made as follows: active = hit-call score of the fitted dose curve at least 0.9, where 1 is the maximum; inactive = score below 0.9.
Can you answer with just one of these options? active, inactive

**Q:** # lookup: test call for OC1CCCCC1
**A:** inactive

**Q:** And O=C(O)Cc1cc(I)c(Oc2cc(I)c(O)c(I)c2)c(I)c1 ?
**A:** active

**Q:** And CC(=O)NC1(c2cccc(F)c2)CCN(CC[C@@]2(c3ccc(Cl)c(Cl)c3)CN(c3ccccc3)C(=O)CO2)CC1 ?
**A:** inactive

**Q:** And CC(=O)CC(C)(C)O ?
**A:** inactive

**Q:** And OC1CCC(C2CCCCC2)CC1 (stereo not drawn) ?
**A:** inactive

**Q:** And O=C(OCCOCCOC(=O)c1ccccc1)c1ccccc1 ?
**A:** inactive

**Q:** And CN1CCC[C@H]1c1cccnc1 ?
**A:** inactive

**Q:** And CC[C@H](C)[C@@H](C(=O)O)n1sc2ccccc2c1=O ?
**A:** inactive

**Q:** And CC(C)CCCCCCOC(=O)CCCCC(=O)OCCCCCCC(C)C ?
**A:** inactive

**Q:** And CCCCCCCCC(=O)O ?
**A:** inactive

**Q:** And CCCCCCCC(=O)O ?
**A:** inactive

**Q:** And CC#C[C@]1(O)CC[C@H]2[C@@H]3CCC4=CC(=O)CCC4=C3[C@@H](c3ccc(N(C)C)cc3)C[C@@]21C ?
**A:** active

**Q:** And C=C(C)C(=O)OCCC(F)(F)C(F)(F)C(F)(F)C(F)(F)C(F)(F)C(F)(F)F ?
**A:** inactive

**Q:** And ClC1=C(Cl)C(Cl)(Cl)C(Cl)=C1Cl ?
**A:** inactive

**Q:** And CC(O)CO (stereo not drawn) ?
**A:** inactive

**Q:** And COCC(C)OCC(C)O (stereo not drawn) ?
**A:** inactive

**Q:** And O=C(O)c1ccccc1C(c1ccc(O)cc1)c1ccc(O)cc1 ?
**A:** inactive

**Q:** And c1ccc2cc3c(ccc4ccccc43)cc2c1 ?
**A:** inactive

---

Experimental details: APR_HepG2_CellLoss_24hr: Apredica 24-hour HepG2 Assay for Cell Loss (AID 2282908)
Conditions used: high-content imaging
Active and inactive are the calls of the source. The calls were made as follows: active = hit-call score of the fitted dose curve at least 0.9, where 1 is the maximum; inactive = score below 0.9.
Can you answer with just one of these options? active, inactive

**Q:** # lookup: test call for c1ccc2cc3c(ccc4ccccc43)cc2c1
**A:** active

**Q:** And CN1CCN(c2ccccc2/C=C2\SCCN(c3ccc(Cl)c(Cl)c3)C2=O)CC1 ?
**A:** active

**Q:** And OCCC(F)(F)C(F)(F)C(F)(F)C(F)(F)C(F)(F)C(F)(F)C(F)(F)C(F)(F)F ?
**A:** active

**Q:** And O=C(OCCOCCOC(=O)c1ccccc1)c1ccccc1 ?
**A:** inactive

**Q:** And CC(=O)CC(C)(C)O ?
**A:** active

**Q:** And O=C(/C=C/c1ccc(O)cc1)CC(=O)/C=C/c1ccc(O)cc1 ?
**A:** inactive

**Q:** And CCc1ccc(CCOc2ccc(CC3SC(=O)NC3=O)cc2)nc1 (centres undefined) ?
**A:** active

**Q:** And CCCCC(CC)COC(=O)CCCCC(=O)OCC(CC)CCCC (centres undefined) ?
**A:** inactive

**Q:** And CCCCOCCO ?
**A:** inactive

**Q:** And ClC1=C(Cl)C(Cl)(Cl)C(Cl)=C1Cl ?
**A:** inactive

**Q:** And CCc1nn(C2CCCCC2)c2cc(C3(C#N)CCC(C(=O)O)CC3)ccc12 (centres undefined) ?
**A:** inactive

**Q:** And c1ccc2c(c1)ccc1ccccc12 ?
**A:** inactive

**Q:** And CC(C)(C)c1cccc(C(C)(C)C)c1O ?
**A:** active

**Q:** And O=C(O)c1ccccc1C(c1ccc(O)cc1)c1ccc(O)cc1 ?
**A:** inactive

**Q:** And Oc1cccc(O)c1 ?
**A:** inactive

**Q:** And O=c1c(-c2ccc(O)cc2)coc2cc(O)ccc12 ?
**A:** inactive

**Q:** And COCC(C)OCC(C)O (centres undefined) ?
**A:** inactive

**Q:** And CN(C)C=O ?
**A:** inactive

**Q:** And CC1=C(/C=C/C(C)=C/C=C/C(C)=C/C(=O)O)C(C)(C)CCC1 ?
**A:** active

**Q:** And CCCCC(CC)COC(=O)CCCCC(=O)OCc1ccccc1 (centres undefined) ?
**A:** inactive

**Q:** And CCOC(=O)CC(O)(CC(=O)OCC)C(=O)OCC ?
**A:** inactive

**Q:** And CCCCCCCCCCCCCCCS(=O)(=O)Oc1ccccc1 ?
**A:** inactive

**Q:** And CCCCCCCCCCCCN1CCCC1=O ?
**A:** active

**Q:** And COC(=O)CCCCC(=O)OC ?
**A:** inactive

**Q:** And CCN(CC)CCNc1ccc(CNC=O)c2sc3ccc(OC)cc3c(=O)c12 ?
**A:** active

**Q:** And N#C[C@@H]1CC(F)(F)CN1C(=O)CNC1CC2CCC(C1)N2c1ncccn1 (some centres undefined) ?
**A:** inactive

**Q:** And CC(=O)NC1(c2cccc(F)c2)CCN(CC[C@@]2(c3ccc(Cl)c(Cl)c3)CN(c3ccccc3)C(=O)CO2)CC1 ?
**A:** active

**Q:** And CN1CCC[C@H]1c1cccnc1 ?
**A:** inactive

**Q:** And NC(=O)N(O)[C@@H]1C=C[C@H](Oc2cccc(Oc3ccc(F)cc3)c2)C1 ?
**A:** active

**Q:** And CCCCCCCCC(=O)O ?
**A:** inactive

**Q:** And Cc1cc(CCN2CCN(c3nsc4ccccc34)CC2)cc2c1NC(=O)CC2(C)C ?
**A:** active

**Q:** And CCCOc1sc(C(=O)N2CCC(c3cc(CN)ccc3F)CC2)c(C)c1Br ?
**A:** active

**Q:** And Cc1cc(C)c(O)c(C)c1 ?
**A:** inactive

**Q:** And CCCCCCCCOC(=O)CCCCCCCCC(=O)OCCCCCCCC ?
**A:** inactive

**Q:** And NC(=O)N1C(=O)C(C(=O)c2cc(Cl)cs2)c2cc(F)c(Cl)cc21 (centres undefined) ?
**A:** active

**Q:** And COCC(C)O (centres undefined) ?
**A:** inactive

**Q:** And CCCCCCC(=O)O ?
**A:** inactive

**Q:** And Nc1cccc2c(N)cccc12 ?
**A:** active

**Q:** And Oc1cc2ccccc2c2ccccc12 ?
**A:** active

---

Read-out: ABC Transporter (ABCC2), ABCC2 (gene 1244)
Experimental details: LTEA_HepaRG_ABCC2: Life Technologies and Expression Analysis (LTEA) Assay for ABC Transporter (ABCC2) using HepaRG (AID 2283464)
Conditions used: mRNA level, 48 h; actives raise or lower the signal
Calls of active or inactive are those of the source. The calls were made as follows: active = hit-call score of the fitted dose curve at least 0.9, where 1 is the maximum; inactive = score below 0.9.
Can you answer with just one of these options? active, inactive

**Q:** # lookup: test call for CC(=O)NC1(c2cccc(F)c2)CCN(CC[C@@]2(c3ccc(Cl)c(Cl)c3)CN(c3ccccc3)C(=O)CO2)CC1
**A:** active

**Q:** And CC(C)(C)CC(C)(C)c1ccc(O)c(-n2nc3ccccc3n2)c1 ?
**A:** active

**Q:** And CC[C@H](c1ccc(O)cc1)[C@@H](CC)c1ccc(O)cc1 ?
**A:** active

**Q:** And CCCCC(CC)COC(=O)CCCCC(=O)OCC(CC)CCCC (stereo not given) ?
**A:** inactive

**Q:** And CC[C@H](C)[C@@H](C(=O)O)n1sc2ccccc2c1=O ?
**A:** inactive

**Q:** And CC(O)CO (stereo not given) ?
**A:** inactive

**Q:** And O=C(O)c1ccccc1C(c1ccc(O)cc1)c1ccc(O)cc1 ?
**A:** inactive

**Q:** And O=C(O)Cc1cc(I)c(Oc2cc(I)c(O)c(I)c2)c(I)c1 ?
**A:** active

**Q:** And CCc1ccc(CCOc2ccc(CC3SC(=O)NC3=O)cc2)nc1 (stereo not given) ?
**A:** inactive

**Q:** And COc1ccc([N+](=O)[O-])cc1N ?
**A:** inactive

**Q:** And CN1CCC[C@H]1c1cccnc1 ?
**A:** inactive

**Q:** And OC1CCCCC1 ?
**A:** inactive

**Q:** And CC(C)CCCCCCOC(=O)CCCCC(=O)OCCCCCCC(C)C ?
**A:** inactive

**Q:** And NC(=O)N(O)[C@@H]1C=C[C@H](Oc2cccc(Oc3ccc(F)cc3)c2)C1 ?
**A:** active

**Q:** And NC(=O)N1C(=O)C(C(=O)c2cc(Cl)cs2)c2cc(F)c(Cl)cc21 (stereo not given) ?
**A:** active

**Q:** And CCC(C)(C)C1CCC(O)CC1 (stereo not given) ?
**A:** inactive

**Q:** And c1ccc2c(c1)ccc1ccccc12 ?
**A:** active

**Q:** And c1ccc2c(c1)Cc1ccccc1-2 ?
**A:** inactive

**Q:** And N#C[C@@H]1CC(F)(F)CN1C(=O)CNC1CC2CCC(C1)N2c1ncccn1 (stereo not given in full) ?
**A:** inactive

**Q:** And CCCCCCCCC(=O)O ?
**A:** inactive

**Q:** And OC1CCC(C2CCCCC2)CC1 (stereo not given) ?
**A:** inactive

**Q:** And CCCCCCCCCCCCN1CCCC1=O ?
**A:** inactive

**Q:** And C=C(C)C(=O)OCCC(F)(F)C(F)(F)C(F)(F)C(F)(F)C(F)(F)C(F)(F)F ?
**A:** inactive

**Q:** And COC(=O)CCCCC(=O)OC ?
**A:** inactive

**Q:** And CCCCCCCC(=O)O ?
**A:** inactive
